Provenance of the data: paper PMC10461807

- test_target: T1, recombinant huCD30 (R&D) (Homo sapiens, UniProt P28908)
- T1 construct: recombinant human CD30 from R&D; also called rhCD30; huCD30 protein; source: bought: R&D
- T1 sequence (P28908 19-385): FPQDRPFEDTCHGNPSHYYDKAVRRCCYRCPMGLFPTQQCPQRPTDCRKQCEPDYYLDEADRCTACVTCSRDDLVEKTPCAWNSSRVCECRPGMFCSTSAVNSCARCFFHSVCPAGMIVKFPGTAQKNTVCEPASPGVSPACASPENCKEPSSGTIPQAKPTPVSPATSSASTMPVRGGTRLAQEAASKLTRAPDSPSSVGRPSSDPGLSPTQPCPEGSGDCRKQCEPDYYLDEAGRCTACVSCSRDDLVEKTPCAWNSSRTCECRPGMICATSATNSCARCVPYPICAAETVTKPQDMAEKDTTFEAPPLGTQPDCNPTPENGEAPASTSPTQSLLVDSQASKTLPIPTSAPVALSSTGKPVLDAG
- protocol_description: SPR; BIAcore 3000, 25°C; recombinant huCD30 amine-coupled on a CM5 chip; mAbs as analyte in serial 1:2 dilutions from 20 nM; 10 mM Hepes pH 7.4, 150 mM NaCl, 0.005% P20, 0.1% BSA; 1:1 Langmuir fit
- condition_summary: both partners purified
Ka values by entry
Just the number in M⁻¹, nothing appended.

binder: anti-CD30 mAb 8D10 (antibody, V domains shown, also called clone 8D10; source: mouse hybridoma (custom generated by Genscript), serum-free supernatant, purified (rProtein A GraviTrap)) VH: QVQLQESGTELVKPGASVKLSCKASGYTFTSYWMHWMKQRPGQGLEWIGNINPSNGGTNYNEKFKNKATLTVDKSSSTAYMQLSSLTSEDSAVYYCARRDYYYGSSYGFDVWGTGTTVTVSS VL: DIVMTQSPASQSASLGESVTITCLASQTIGTWLAWYQQKPGKSPQFLIYAATSLADGVPSRFSGSGSGTKFSFKISSLQAEDFVSYYCQQLYSTPFTFGGGTKLEIK
u: M⁻¹
data_value: 1.69e+10

Prompt line: I'd like to know its Ka. The binder in question is anti-CD30 mAb 15B8 (antibody, V domains shown, also called clone 15B8; source: mouse hybridoma (custom generated by Genscript), serum-free supernatant, purified (rProtein A GraviTrap)) VH: QVQLEQSGTELVKPGASVKLSCKASGYTFTSYWMHWVKQRPGQGLEWIGNINPSNGGTNYNEKFKSKATLTVDKSSSTAYMQLSSLTSEDSAIYYCARRNNYYASSPFAYWGQGTLVSVSA VL: DIVMTQTPASLSASVGETVTITCRASGNIHNYLAWYQQKQGKSPQLLVYNAKTLADGVPSRFSGSGSGTQYSLKINSLQPEDFGSYYCQHFWSTPFTFGSGTKLEIK
Response line: 1.02e+09

Prompt line: I'd like to know its Ka. The binder in question is anti-CD30 mAb 12B1 (antibody, V domains shown, also called clone 12B1; source: mouse hybridoma (custom generated by Genscript), serum-free supernatant, purified (rProtein A GraviTrap)) VH: EVKLEESGTELVKPGASVKLSCKASGYTFTSYWMHWVKQRPGQGLEWIGNINPTNGGTNYNEKFKSKATLTVDKSSRTAYMQLSSLTSGDSAVYYCARRDFITTSGFAYWGQGTLVTVSA VL: DIVMTQTTASLSTSVGETVTITCRASGNLHSYLTWYQQKQGKSPQLLVYNAKTLADGVPSRFSGSGSGTQYSLKIDSLQPEDFGSYYCQHFWTTPFTFGSGTKLEIK
Response line: 5.02e+09

Prompt line: I'd like to know its Ka. The binder in question is anti-CD30 mAb 13H1 (antibody, V domains shown, also called clone 13H1; source: mouse hybridoma (custom generated by Genscript), serum-free supernatant, purified (rProtein A GraviTrap)) VH: QVQLQQSGTELVKPGASVKLSCKASGHTFTSYWMHWVKQRPGQGLEWIGNINPSNGGTNYNEKFKSKATLTVDKSSSTAYMQLSSLTSEDSAVYYCARRGYYGSSSYWSFDVWGTGTTVTVSS VL: DIVMTQTPKSMSMSVGERVTLSCKASENVGTYVSWYQQKPEQSPKVLIYGASNRFTGVPDRFTGSGSATDFTLTISSVQTEDLADYHCGQSYSYPLTFGAGTKLELK
Response line: 6.7e+09
